test system: NCI/ADR-RES; assay: Growth inhibition of human NCI/ADR-RES cells assessed as cell growth at 100 uM incubated for 48 hrs by sulforhodamine B assay relative to control; type: functional; details: read-out: Activity
Reported growth at 100 µM is given for each of the following compounds.
QUANTITY_KIND: growth at 100 µM (%)

INSERT INTO results (compound, target_under_test, numeric_result) VALUES
  ('Cc1ccc(NC(=O)c2sc3nc4c(cc3c2N)C(=O)CCC4)cc1C', 'NCI/ADR-RES', 4),
  ('Cc1cc(C)c(NC(=O)c2sc3nc4c(cc3c2N)CN(Cc2ccccc2)CC4)c(C)c1', 'NCI/ADR-RES', -11),
  ('CCc1cccc(C)c1NC(=O)c1sc2nc3c(cc2c1N)C(=O)CCC3', 'NCI/ADR-RES', 1),
  ('Nc1c(C(=O)Nc2ccccc2)sc2nc3c(cc12)CN(Cc1ccccc1)CC3', 'NCI/ADR-RES', 29),
  ('CCc1ccccc1NC(=O)c1sc2nc3c(cc2c1N)C(=O)CCC3', 'NCI/ADR-RES', -6),
  ('COc1cccc(NC(=O)c2sc3nc4c(cc3c2N)CN(Cc2ccccc2)CC4)c1', 'NCI/ADR-RES', -26),
  ('Cc1cccc(NC(=O)c2sc3nc4c(cc3c2N)C(=O)CCC4)c1', 'NCI/ADR-RES', -3);

----------
test system: 786-0; assay: Growth inhibition of human 786-0 cells assessed as cell growth at 1 uM incubated for 48 hrs by sulforhodamine B assay relative to control; assay type: functional; settings: read-out: Activity
Parameter: growth at 1 µM. Scope: all listed entries.
QUANTITY_KIND: growth at 1 µM (%)

INSERT INTO measurements (compound, target_under_test, numeric_result) VALUES
  ('Nc1c(C(=O)Nc2ccccc2)sc2nc3c(cc12)CN(Cc1ccccc1)CC3', '786-0', 106),
  ('COc1cccc(NC(=O)c2sc3nc4c(cc3c2N)CN(Cc2ccccc2)CC4)c1', '786-0', 85),
  ('CCc1cccc(C)c1NC(=O)c1sc2nc3c(cc2c1N)C(=O)CCC3', '786-0', 36);

----------
test system: HCT-15; test: Growth inhibition of human HCT-15 cells incubated for 48 hrs by sulforhodamine B assay; assay type: functional
Below, each entry is listed with its recorded LC50.
QUANTITY_KIND: LC50

INSERT INTO results (compound, result) VALUES
  ('CCc1cccc(C)c1NC(=O)c1sc2nc3c(cc2c1N)C(=O)CCC3', '> 100 µM'),
  ('COc1cccc(NC(=O)c2sc3nc4c(cc3c2N)CN(Cc2ccccc2)CC4)c1', '> 100 µM'),
  ('CN1CCc2nc3sc(C(N)=O)c(N)c3c(-c3cccs3)c2C1', '> 100 µM');

----------
tested on: UO-31; assay: Growth inhibition of human UO-31 cells assessed as cell growth at 1 uM incubated for 48 hrs by sulforhodamine B assay relative to control; assay type: functional; settings: read-out: Activity
QUANTITY_KIND: growth at 1 µM (%)

INSERT INTO assay_data (compound, target_under_test, numeric_result) VALUES
  ('Nc1c(C(=O)Nc2ccccc2)sc2nc3c(cc12)CN(Cc1ccccc1)CC3', 'UO-31', 83),
  ('CN1CCc2nc3sc(C(N)=O)c(N)c3c(-c3cccs3)c2C1', 'UO-31', 95),
  ('Cc1cc(C)c(NC(=O)c2sc3nc4c(cc3c2N)CN(Cc2ccccc2)CC4)c(C)c1', 'UO-31', 77),
  ('CCc1cccc(C)c1NC(=O)c1sc2nc3c(cc2c1N)C(=O)CCC3', 'UO-31', 37),
  ('Cc1cccc(NC(=O)c2sc3nc4c(cc3c2N)C(=O)CCC4)c1', 'UO-31', 55);

----------
Form field: growth at 0.1 µM (one value per entry).
system: KM12; assay: Growth inhibition of human KM12 cells assessed as cell growth at 0.1 uM incubated for 48 hrs by sulforhodamine B assay relative to control; format: functional; conditions: read-out: Activity
QUANTITY_KIND: growth at 0.1 µM (%)

INSERT INTO assay_data (compound, numeric_result) VALUES
  ('Cc1cc(C)c(NC(=O)c2sc3nc4c(cc3c2N)CN(Cc2ccccc2)CC4)c(C)c1', 103),
  ('CN1CCc2nc3sc(C(N)=O)c(N)c3c(-c3cccs3)c2C1', 105),
  ('Cc1cccc(NC(=O)c2sc3nc4c(cc3c2N)C(=O)CCC4)c1', 65),
  ('CCc1cccc(C)c1NC(=O)c1sc2nc3c(cc2c1N)C(=O)CCC3', 92),
  ('Nc1c(C(=O)Nc2ccccc2)sc2nc3c(cc12)CN(Cc1ccccc1)CC3', 95),
  ('CCc1ccccc1NC(=O)c1sc2nc3c(cc2c1N)C(=O)CCC3', 92),
  ('Cc1ccc(NC(=O)c2sc3nc4c(cc3c2N)C(=O)CCC4)cc1C', 96),
  ('COc1cccc(NC(=O)c2sc3nc4c(cc3c2N)CN(Cc2ccccc2)CC4)c1', 98);

----------
test system: Hs-578T; assay: Growth inhibition of human Hs-578T cells assessed as cell growth at 100 uM incubated for 48 hrs by sulforhodamine B assay relative to control; type: functional; conditions: read-out: Activity
QUANTITY_KIND: growth at 100 µM (%)

INSERT INTO assay_data (compound, quantity_kind, numeric_result) VALUES
  ('COc1cccc(NC(=O)c2sc3nc4c(cc3c2N)CN(Cc2ccccc2)CC4)c1', 'growth at 100 µM', -9),
  ('Cc1cc(C)c(NC(=O)c2sc3nc4c(cc3c2N)CN(Cc2ccccc2)CC4)c(C)c1', 'growth at 100 µM', -3),
  ('CCc1ccccc1NC(=O)c1sc2nc3c(cc2c1N)C(=O)CCC3', 'growth at 100 µM', 15),
  ('Cc1cccc(NC(=O)c2sc3nc4c(cc3c2N)C(=O)CCC4)c1', 'growth at 100 µM', -48),
  ('CN1CCc2nc3sc(C(N)=O)c(N)c3c(-c3cccs3)c2C1', 'growth at 100 µM', -13),
  ('Cc1ccc(NC(=O)c2sc3nc4c(cc3c2N)C(=O)CCC4)cc1C', 'growth at 100 µM', 17),
  ('Nc1c(C(=O)Nc2ccccc2)sc2nc3c(cc12)CN(Cc1ccccc1)CC3', 'growth at 100 µM', -6),
  ('CCc1cccc(C)c1NC(=O)c1sc2nc3c(cc2c1N)C(=O)CCC3', 'growth at 100 µM', 17);

----------
# growth at 10 µM listing for each entry below
system: HT-29; assay: Growth inhibition of human HT-29 cells assessed as cell growth at 10 uM incubated for 48 hrs by sulforhodamine B assay relative to control; type: functional; details: read-out: Activity
QUANTITY_KIND: growth at 10 µM (%)

INSERT INTO results (compound, numeric_result) VALUES
  ('O=S(=O)(c1ccccc1)n1ccc(-c2ccc3c(c2)CCO3)n1', 92.8),
  ('CN1CCc2nc3sc(C(N)=O)c(N)c3c(-c3cccs3)c2C1', 7),
  ('Cc1cccc(NC(=O)c2sc3nc4c(cc3c2N)CN(Cc2ccccc2)CC4)c1', 100),
  ('CC(C)N1CCc2nc3sc(C(=O)Nc4ccccc4)c(N)c3cc2C1', 103),
  ('Nc1c(C(=O)Nc2ccccc2)sc2nc3c(cc12)CN(Cc1ccccc1)CC3', 77),
  ('Cc1cc(C)c(NC(=O)c2sc3nc4c(cc3c2N)CN(Cc2ccccc2)CC4)c(C)c1', 3),
  ('CC(=O)c1ccc2c(N)c(C(=O)Nc3ccccc3)sc2n1', 97.2);

----------
Consider the following compounds and their measured growth at 10 µM readings.
test system: HCT-116; assay: Growth inhibition of human HCT-116 cells assessed as cell growth at 10 uM incubated for 48 hrs by sulforhodamine B assay relative to control; type: functional; conditions: read-out: Activity
QUANTITY_KIND: growth at 10 µM (%)

INSERT INTO results (compound, target_under_test, numeric_result) VALUES
  ('O=S(=O)(c1ccc(Br)cc1)n1ccc(-c2ccc(OCCCF)cc2)n1', 'HCT-116', 78.7),
  ('CC1(C)CCc2cc(-c3ccn(S(=O)(=O)c4ccc(C(C)(C)C)cc4)n3)ccc2O1', 'HCT-116', 73.1),
  ('Cc1ccc(S(=O)(=O)n2ccc(-c3ccc(OCCCF)cc3)n2)cc1', 'HCT-116', 86.1),
  ('CC(C)N1CCc2nc3sc(C(=O)Nc4ccccc4)c(N)c3cc2C1', 'HCT-116', 102),
  ('Cc1cc(C)c(NC(=O)c2sc3nc4c(cc3c2N)CN(Cc2ccccc2)CC4)c(C)c1', 'HCT-116', 16),
  ('Cc1cccc(NC(=O)c2sc3nc4c(cc3c2N)CN(Cc2ccccc2)CC4)c1', 'HCT-116', 92.6),
  ('CN1CCc2nc3sc(C(N)=O)c(N)c3c(-c3cccs3)c2C1', 'HCT-116', 6),
  ('COc1ccc(S(=O)(=O)n2ccc(-c3ccc(OC(C)C)cc3)n2)cc1', 'HCT-116', 79),
  ('CCc1ccccc1NC(=O)c1sc2nc3c(cc2c1N)C(=O)CCC3', 'HCT-116', 24),
  ('COc1ccc(S(=O)(=O)n2ccc(-c3ccc4c(c3)CCC(C)(C)O4)n2)cc1', 'HCT-116', 68.3);
